test system: GAK; conditions: concentration: 1 μM,replicates: in singlicate; n = 1;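 also: KINOMEscan kinase panel screen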
For each record, write down the corresponding %Inh.
Answers are plain numbers, in %.

COC(=O)c1cccc(NC(=O)NC2CCN(c3ccnc(NCc4ccc(F)cc4)n3)CC2)c1	0
COc1cc2ncn(-c3cc(OCC4CCCCC4)c(C(N)=O)s3)c2cc1OC	79

Please give %Inh, item by item, for the list that follows.
1. CCn1c(-c2nonc2N)nc2cncc(Br)c21
2. COc1cc(Nc2nccc(N3CCC(NC(=O)c4cccc(C#N)c4)C3)n2)cc(OC)c1OC (centres unmarked)
3. C[C@@H]1CNc2c(sc3ccc4nc(-c5ccc(O)cc5)ccc4c23)C(=O)N1

Result:
1: 17; 2: 47; 3: 0

---

test system: RSK2(Kin.Dom.2-C-terminal); construct: gene RPS6KA3; settings: concentration: 1 μM,replicates: in singlicate; n = 1
Give %Inh for every item shown.
Give bare numbers, in %.

NC(=O)c1ccc(-c2cc3ncnc(SCC(=O)O)c3s2)cc1	0
CS(=O)(=O)Nc1ccc(-c2ccnc3[nH]ccc23)cc1 [GSK993273]	29
C[C@@H](Oc1cc(-n2cnc3ccc(-c4ccncc4)cc32)sc1C(N)=O)c1ccccc1Cl [GSK483724]	0
Cc1ccc(Nc2ccnc(Nc3ccc4c(c3)CS(=O)(=O)C4)n2)cc1O.Cl [GW579362]	55
Cn1ccc2ncnc(Oc3ccc(NC(=O)Nc4cncc(C(F)(F)F)c4)c(Cl)c3)c21	0
CS(=O)(=O)c1cccc(CNc2nc(Nc3ccc4c(c3)[C@@H]3C[C@@H]4CNC3=O)ncc2C(F)(F)F)c1	0
C[C@@H]1CCN(C(=O)N2CCCC2)C[C@@H]1N(C)c1ncnc2[nH]ccc12	0
CCn1c(-c2nonc2N)nc2cncc(Br)c21 [SB-738004]	27

Quick batch: %Inh for everything below.
1. Cc1cccc2c(-c3ccncc3)c(-c3ccc(F)cc3)nn12.Cl [GW461487]
2. COC(=O)Nc1nc2cc(Oc3ccc(NC(=O)Nc4cc(C(F)(F)F)ccc4Cl)cc3)ccc2[nH]1.Cl [GW697465]
3. O=C(NOCC1CC1)c1cc(Br)c(F)c(F)c1Nc1ccc(I)cc1Cl
4. COC(=O)c1cccc(NC(=O)NC2CCN(c3ccnc(NCc4ccc(F)cc4)n3)CC2)c1 [GSK1379860]
5. CSc1nccc(-c2c(-c3ccc(F)cc3)ncn2CCCN2CCOCC2)n1.Cl [SB-217146]

Result:
1. 32
2. 10
3. 0
4. 9
5. 0

List the reported %Inh of each compound below.
1. NC(=O)Nc1sc(-c2ccc(F)cc2)cc1C(N)=O [GW789449]
2. FC(F)(F)c1cc(Br)cc(Nc2nccc(-c3cnn4ncccc34)n2)c1 [GW810578]

Result:
1: 45; 2: 0

Below is a list of compounds. For each, state its recorded %Inh.
1. O=C(Nc1ccc(Oc2ccc3nc(NC(=O)C4CC4)cn3n2)c(F)c1)c1cccn(-c2ccccc2)c1=O
2. COC(=O)c1cccc(NC(=O)NC2CCN(c3ccnc(Nc4cc(OC)c(OC)c(OC)c4)n3)C2)c1 (centres unmarked) [GSK1379767]
3. OCCn1cc(-c2cnc3nnn(Cc4ccc5ncccc5c4)c3n2)cn1
4. CN(c1ccccc1CNc1nc(Nc2ccc3c(c2)CC(=O)N3)ncc1C(F)(F)F)S(C)(=O)=O
5. CN1CCN(CCNc2nc3cc(Oc4ccc(NC(=O)Nc5cc(C(F)(F)F)ccc5F)cc4)ccc3[nH]2)CC1.Cl.Cl [GW768504]
6. CC(C)S(=O)(=O)N1CCN(Cc2ccc3c(c2)nc(NC(=O)c2ccsc2)n3C[C@H](O)c2ccccc2)CC1 [GW635815]

Result:
28
1
0
0
0
6

Quick batch: %Inh for everything below.
1. CCn1c(-c2nonc2N)nc2cncc(CNC3CCNCC3)c21.Cl [SB-747651]
2. Cl.c1ccc(Oc2ccc(Nc3ccnc4cc(-c5ccc(CN6CCNCC6)o5)ccc34)cc2)nc1 [GW567142]
3. CN1CCN(CCCNc2nccc(-c3c(-c4ccc(F)cc4)nn4cc(C(N)=O)ccc34)n2)CC1 [GW622475]
4. CS(=O)c1ccc(-c2coc3ccc(-c4n[nH]c(=O)o4)cc23)cc1 (centres unmarked)
5. N#Cc1cccc(C(=O)NC2CCN(c3ccnc(Nc4ccc(F)cc4)n3)C2)c1 (centres unmarked) [GSK1379708]

Result:
1. 6
2. 0
3. 100
4. 0
5. 0

---

tested on: PFTK1; construct: gene CDK14; conditions: concentration: 1 μM,replicates: in singlicate; n = 1
I'd appreciate it if you could supply %Inh values for the items below.
One number for each entry, in %.

# annotated cases, reported %Inh shown
CS(=O)(=O)Nc1ccc(-c2ccnc3[nH]ccc23)cc1	16
CNC(=O)c1ccccc1Nc1nc(Nc2cccc(CS(C)(=O)=O)c2)ncc1C.O=CO	16

Fill in %Inh for each of the 3 compounds listed.
1. O=C(Nc1n[nH]c2cc(-c3ccco3)ccc12)C1CC1
2. CCn1c(-c2nonc2N)nc2cncc(Br)c21
3. Cc1ccc2c(-c3ccnc(Nc4ccc(C(F)(F)F)cc4)n3)cnn2n1

Result:
1: 1; 2: 25; 3: 0

---

Provide the recorded %Inh for the entries that follow.
tested on: ERK4; construct: gene MAPK4; conditions: concentration: 1 μM,replicates: in singlicate; n = 1
Give bare numbers, in %.

Completed entries (count: 2):
C[C@@H](Oc1cc(-n2cnc3ccc(-c4ccncc4)cc32)sc1C(N)=O)c1ccccc1Cl [GSK483724]	0
c1ccc(Oc2ccc(Nc3ccnc4ccc(-c5ccccn5)cc34)cc2)cc1 [GW407034]	0

Give %Inh for all compounds that follow.
1. CS(=O)(=O)Nc1ccc(-c2ccnc3[nH]ccc23)cc1 [GSK993273]
2. CC(=O)Nc1ccc(-c2cc3ncnc(SCC(=O)O)c3s2)cc1
3. O=C(Nc1cccc(Oc2ccc3nccn3n2)c1)Nc1cccc(C(F)(F)F)c1
4. Nc1nccc(-c2ccc3c(N)n[nH]c3c2)n1 [GSK1034945]
5. COc1cc2nccc(Nc3ccc(Oc4ccccc4)cc3)c2cc1OC.Cl [GI261656]
6. CN1CCN(CCNc2nc3cc(Oc4ccc(NC(=O)Nc5cc(C(F)(F)F)ccc5F)cc4)ccc3[nH]2)CC1.Cl.Cl [GW768504]

Result:
1: 13; 2: 0; 3: 1; 4: 8; 5: 0; 6: 0

Problem: Item CN1CCN(CCCNc2nccc(-c3c(-c4ccc(F)cc4)nn4cc(C(N)=O)ccc34)n2)CC1 [GW622475] has what recorded %Inh?
Result: 36

---

system: CAMK2D; conditions: concentration: 1 μM,replicates: in singlicate; n = 1
I'd be grateful if you could share measured %Inh for these entries.
Answers are plain numbers, in %.

Example entries begin here.
c1ccc(Oc2ccc(Nc3ccnc4ccc(-c5ccccn5)cc34)cc2)cc1	7
Cc1cccc2c(-c3ccncc3)c(-c3ccc(F)cc3)nn12.Cl	29
CN1CCN(CCCNc2nccc(-c3c(-c4ccc(F)cc4)nn4cc(C(N)=O)ccc34)n2)CC1	21
Cl.Nc1n[nH]c2cc(-c3ccccn3)ccc12	2

Below: the item to evaluate.
Problem: # %Inh lookup, item OCCn1cc(-c2cnc3nnn(Cc4ccc5ncccc5c4)c3n2)cn1
Result: 0

---

tested on: ICK; conditions: concentration: 1 μM,replicates: in singlicate; n = 1
reported property: %Inh (%)
Numbers only, in %.

Study these solved cases before continuing.
Cl.Cl.NC[C@H](CC1CCCCC1)NC(=O)c1ccc(-c2ccnc3[nH]ccc23)s1 [GSK1581428]	11
COc1cc2nccc(Nc3ccc(Oc4ccccc4)cc3)c2cc1OC.Cl [GI261656]	0

Dear colleague, could you please provide %Inh for the molecules listed below?
1. O=C(Nc1n[nH]c2cc(-c3ccco3)ccc12)C1CC1 [SB-737447]
2. COc1cccc(CNC(=O)NC2CCN(c3ccnc(Nc4cc(OC)c(OC)c(OC)c4)n3)C2)c1 (stereo not drawn) [GSK1379765]
3. Cc1cccc2c(-c3ccncc3)c(-c3ccc(F)cc3)nn12.Cl [GW461487]
4. CC(C(=O)NC1CCN(c2ccnc(Nc3ccc(F)cc3)n2)C1)c1ccc(Cl)cc1 (stereo not drawn) [GSK1379713]
5. NC(=O)c1ccc(-c2cc3ncnc(SCC(=O)O)c3s2)cc1

Result:
[66, 13, 0, 0, 10]

Below are some molecules; for each one, tell me its %Inh.
1. c1ccc(Oc2ccc(Nc3ccnc4ccc(-c5ccccn5)cc34)cc2)cc1 [GW407034]
2. CC(=O)Nc1ccc(-c2cc3ncnc(SCC(=O)O)c3s2)cc1

Result:
16
60

---

test system: MINK; construct: gene MINK1; conditions: concentration: 1 μM,replicates: in singlicate; n = 1
reported property: %Inh
Remember to follow the number with its unit.

COc1ccc(Nc2nccc(N3CCC(NC(=O)c4cccc(C#N)c4)C3)n2)cc1 (centres unmarked)	0%
CN1CCN(CCCNc2nccc(-c3c(-c4ccc(F)cc4)nn4cc(C(N)=O)ccc34)n2)CC1	71%
CC(C(=O)NC1CCN(c2ccnc(Nc3ccc(F)cc3)n2)C1)c1ccc(Cl)cc1 (centres unmarked)	0%
CN1CCN(CCNc2nc3cc(Oc4ccc(NC(=O)Nc5cc(C(F)(F)F)ccc5F)cc4)ccc3[nH]2)CC1.Cl.Cl	0%
Cl.Cl.NC[C@H](CC1CCCCC1)NC(=O)c1ccc(-c2ccnc3[nH]ccc23)s1	67%
Cn1ccc2ncnc(Oc3ccc(NC(=O)Nc4cnn(C(C)(C)C)c4)c(Cl)c3)c21	70%
COc1cc2ncn(-c3cc(OCC4CCCCC4)c(C(N)=O)s3)c2cc1OC	31%
Cl.c1ccc(Oc2ccc(Nc3ccnc4cc(-c5ccc(CN6CCNCC6)o5)ccc34)cc2)nc1	27%

Below is a list of compounds. For each, state its recorded %Inh.
1. O=c1[nH]cc(-c2ccc(O)cc2)c2sc(-c3ccncc3)cc12
2. CC(C)S(=O)(=O)N1CCN(Cc2ccc3c(c2)nc(NC(=O)c2ccsc2)n3C[C@H](O)c2ccccc2)CC1
3. CNC(=O)c1ccccc1Nc1nc(Nc2cccc(CS(C)(=O)=O)c2)ncc1C.O=CO

Result:
1: 0%; 2: 60%; 3: 58%
